Biological target: T1, TSHR coated onto tubes (human, UniProt P16473 21-764, limits assumed)
T1 construct: whole entry named; also called TSHR coated tubes; thyrotropin receptor
Test: TSHR coated tubes, competitor 125I-M22 IgG
Property: % inhib of 125I-M22 IgG binding at 0.1 µg/mL (%)
Entry rule: numbers only, all in %.

stdin: Return % inhib of 125I-M22 IgG binding at 0.1 µg/mL for the following binder: 17D2 IgG (antibody, V domains shown) VH: DVQIQQSGPELVKPGASVKMSCKASGYSFTAYNMHWVKQTHGKSLEWIGYIDPYSGATSYHQKFKGKATLTVDKSSSTAYMRLNSLTSEDSAVYYCARRWDWDPYAMDYWGQGTSVTVSS VL: SVEMSQSPAILSVSPGERISFSCRASQSIGTSIHWYQQRTNGSPRLLIKYASASISGIPSRFSGSGSGTDFTLSINSVESEDIADYYCQQSNSWPLTFGAGTKLELKR
stdout: 13
